# System: OVCAR-5 ovarian
# procedureSummary: NCI-60 one-dose screen, 48 h
# recordedConditions: 10 µM
The panel holds about 83,000 compounds, 20% with a hit somewhere; the sample as a whole holds those more often. Activity calls are given as the source filed them. The calls were made as follows: active = growth percent below 10; inactive = the rest.
Choose the fitting class; nothing outside active, inactive is accepted.

| molecule | categoryLabel |
| --- | --- |
| CN1C(=O)[C@]23SSC1(C)C(=O)N2[C@H]1Nc2ccccc2C1([C@@]12c4ccccc4N[C@@H]1N1C(=O)C4(C)SS[C@]1(C(=O)N4C)[C@H]2O)[C@@H]3O (stereo partly drawn) | active |

// return assay outcome for C/C=C\C(=O)O[C@@H]1CC2O[C@@H]3C=C(C)C(=O)C[C@]3(C)[C@]1(C)[C@]21CO1
active

Record lookup: outcome of this test for COc1cc2c(O[C@@H]3OC[C@H](OC(C)=O)[C@H](OC(C)=O)[C@H]3O)c3c(c(-c4ccc5c(c4)OCO5)c2cc1OC)C(=O)OC3 ?
inactive

What call does the record list for NC1CCc2cc(O)c(O)cc2C1 (stereo not drawn) ?
inactive

So what was the verdict on CC1=C2C(=O)[C@](C)(CO)C=C2C(=O)[C@](C)(O)C12CC2 in this test?
inactive

For CC(C)(O)/C=C/C(=O)[C@](C)(O)[C@H]1[C@H](O)C[C@@]2(C)[C@H]3CC=C4[C@@H](C[C@H](O)C(=O)C4(C)C)[C@]3(C)C(=O)C[C@]12C , which call appears in the assay record?
inactive

Can you look up the reported call for CC1=C[C@H]2O[C@@H]3C[C@H]4OC(=O)/C=C\C=C\[C@H]([C@@H](C)O)OCC/C(C)=C/C(=O)OC[C@@]2(CC1)[C@]4(C)[C@]31CO1 for me?
active

How was C[C@@H]1C[C@H]2C(=O)O[C@@H](C)C(NC(=O)[C@H](Cc3cc(F)cc(F)c3)NC(=O)Nc3ccc(OS(=O)(=O)F)cc3)C(=O)N3CCC[C@H]3C(=O)N3CCO[C@H](C)[C@H]3C(=O)N[C@@H](CO)C(=O)N2C1 (stereo partly drawn) classified in this test?
inactive

Per the records of this test, what outcome belongs to COC1[C@@H]2C[C@H]3C(C)(C)O[C@@](C/C=C(/C)C(=O)O)(C2=O)[C@]32Oc3c(CC=C(C)C)c4c(c(O)c3C(=O)[C@H]12)C=CC(C)(C)O4 (stereo partly drawn) ?
active

Please state the recorded outcome for this molecule: COc1cc(OC)c(S(=O)(=O)N(CCCl)CCCl)cc1C(=O)/C=C/c1ccc(Cl)cc1
inactive

Outcome? CC(C)=CCc1c2c(c(O)c3c1O[C@]14C(=C[C@@H]5C[C@H]1C(C)(C)O[C@@]4(C/C=C(/C)C(=O)O)C5=O)C3=O)C=CC(C)(C)O2
active

Given CC1=C[C@H]2O[C@@H]3C[C@H]4OC(=O)/C=C\C=C\[C@H]([C@@H](C)O)OCC[C@@H](C)[C@H](O)C(=O)OC[C@@]2(CC1)[C@]4(C)[C@]31CO1 , state the outcome it received in this test.
active

Look up the recorded call for COc1cc2c(O[C@@H]3OC[C@H](O)[C@H](O)[C@H]3O)c3c(c(-c4ccc5c(c4)OCO5)c2cc1OC)C(=O)OC3 in this test.
inactive
